system: Fer (mouse); assay: phosphorylation enrichment, bacterial display (enrichment ratio); higher = better substrate or ligand; peptides without Tyr show the background;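 also: 11-residue human phosphosite peptides and single-mutation variants displayed on the E. coli surface, counted by deep sequencing, each peptide's frequency after selection divided by its frequency in the unselected input library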;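 also: frequency after pTyr selection over input frequency; kinase dosed for 20-30% of maximal phosphorylation in three min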
phosphorylation enrichment listing for selected sequences.
Form rule: numeric answer, no unit written next to it.

Lab note: INNIDYYKKTT [FGFR2_Y656] gave phosphorylation enrichment of 0.334

Lab note: "VRLTEYPCAGL" gave phosphorylation enrichment of 0.381

====

system: Fer (mouse); test: phosphorylation enrichment, bacterial display (enrichment ratio); higher = better substrate or ligand; peptides without Tyr show the background
phosphorylation enrichment listing for selected sequences.
Form rule: numeric answer, no unit written next to it.

Reference set, count: 6
SEQ: GVRLYYRVRES [RB1_Y454_M457R]
MEAS_VALUE: 0.483
--
SEQ: QRIHNYYEHRY [HCN4_Y554_D553N]
MEAS_VALUE: 0.65
--
SEQ: HSFNSYTFPRL [PAK5_Y316_YF]
MEAS_VALUE: 0.489
--
SEQ: HSRTRYERNIE [F2_Y434]
MEAS_VALUE: 1.14
--
SEQ: EAIMTYVSSFF [ACTN4_Y260_K255E_YF]
MEAS_VALUE: 0.468
--
SEQ: YDAHNYHPLPV [OAT_Y55_G51D]
MEAS_VALUE: 6.52

Lab note: "AKIDGYIISFR" gave phosphorylation enrichment of 0.386

Lab note: QLYGAYLRIHA [BSCL2_Y213] gave phosphorylation enrichment of 0.536

Lab note: RRIHSYRGFLW [VHL_Y112_H115Y_YF] gave phosphorylation enrichment of 0.458

Lab note: GLDGRYLLRDS [SH2D1A_Y29_S28R] gave phosphorylation enrichment of 0.637

Lab note: GMKIVYVYVKK [DNAI2_Y5_E2K] gave phosphorylation enrichment of 0.605

Lab note: TVSSDYLHPQY [CCPG1_Y569_F566S] gave phosphorylation enrichment of 0.442

Lab note: HSGIYYKPESL [L2HGDH_Y103] gave phosphorylation enrichment of 0.613

Lab note: LTERDYSFVTT [ACTG2_Y199_G198D] gave phosphorylation enrichment of 2.82

====

tested on: AncSZ; assay: phosphorylation enrichment, bacterial display (enrichment ratio); higher = better substrate or ligand; peptides without Tyr show the background
phosphorylation enrichment listing for selected sequences.
Form rule: numeric answer, no unit written next to it.

SEQ: RRAKGYPIFLF [ITGB2_Y125_D128Y_YF]
MEASURED_PARAMETER: phosphorylation enrichment
MEAS_VALUE: 0.632
--
SEQ: DPLLTYWFPPK [LMNA_Y481_R482W]
MEASURED_PARAMETER: phosphorylation enrichment
MEAS_VALUE: 2.78
--
SEQ: KKFPDYIQIAM [SGMS2_Y59_YF]
MEASURED_PARAMETER: phosphorylation enrichment
MEAS_VALUE: 1.13
--
SEQ: IGSHAYGDQFR [IDH1_Y135_R132S_YF]
MEASURED_PARAMETER: phosphorylation enrichment
MEAS_VALUE: 0.527
--
SEQ: QPGTDYKIYLY [FN1_Y1970]
MEASURED_PARAMETER: phosphorylation enrichment
MEAS_VALUE: 1.74
--
SEQ: SVVVPYKPPEV [TP53_Y220_E221K]
MEASURED_PARAMETER: phosphorylation enrichment
MEAS_VALUE: 0.915
--
SEQ: SSVAGYACLAF [MVD_Y131_A128V_YF]
MEASURED_PARAMETER: phosphorylation enrichment
MEAS_VALUE: 0.903
--
SEQ: TLNTNYHLPPS [MT-ATP8_Y33_M28T]
MEASURED_PARAMETER: phosphorylation enrichment
MEAS_VALUE: 0.698

For SFGMVYEGNAR [INSR_Y1038] on AncSZ, measured phosphorylation enrichment was 0.629

For EKQARYEIVEE [CDH5_Y223_V227E] on AncSZ, measured phosphorylation enrichment was 1.2

For QRPFVYFFSFL [PTEN_Y176_R173P_YF] on AncSZ, measured phosphorylation enrichment was 1.23

For TLQWMYGCDVG [HLA-B_Y123_S121W] on AncSZ, measured phosphorylation enrichment was 1.2

For LEHCQYVTQKV [ALDOB_Y204_E207Q] on AncSZ, measured phosphorylation enrichment was 1.01

For GFPVHYTDVSN [DNMT3B_Y815] on AncSZ, measured phosphorylation enrichment was 0.661

For PEIIAYQPFGK [PRKCG_Y529_YF] on AncSZ, measured phosphorylation enrichment was 1.03

For GHLFANDWISI [BEST1_Y227_Y227N_YF] on AncSZ, measured phosphorylation enrichment was 0.703

Data origin: the supplement of paper PMC10065799
